TGT: α2β GlyR (Homo sapiens, UniProt P23416+P48167)
Construct: expressed in transfected cells; host or cells: CHO cells
Sequence (P23416 28-452 isoform P23416-2 limits assumed): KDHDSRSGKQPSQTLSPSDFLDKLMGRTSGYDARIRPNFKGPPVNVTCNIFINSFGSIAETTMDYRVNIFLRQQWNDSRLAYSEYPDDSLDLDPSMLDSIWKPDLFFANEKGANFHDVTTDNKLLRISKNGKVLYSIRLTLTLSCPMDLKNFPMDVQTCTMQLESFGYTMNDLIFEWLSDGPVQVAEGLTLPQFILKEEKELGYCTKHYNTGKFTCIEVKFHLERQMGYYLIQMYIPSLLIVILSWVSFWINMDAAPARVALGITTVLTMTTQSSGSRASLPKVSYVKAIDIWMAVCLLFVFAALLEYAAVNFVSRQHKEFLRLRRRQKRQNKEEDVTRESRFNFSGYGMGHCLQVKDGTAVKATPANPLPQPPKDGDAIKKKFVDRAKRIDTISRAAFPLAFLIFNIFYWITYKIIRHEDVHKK
Sequence (P48167 23-497): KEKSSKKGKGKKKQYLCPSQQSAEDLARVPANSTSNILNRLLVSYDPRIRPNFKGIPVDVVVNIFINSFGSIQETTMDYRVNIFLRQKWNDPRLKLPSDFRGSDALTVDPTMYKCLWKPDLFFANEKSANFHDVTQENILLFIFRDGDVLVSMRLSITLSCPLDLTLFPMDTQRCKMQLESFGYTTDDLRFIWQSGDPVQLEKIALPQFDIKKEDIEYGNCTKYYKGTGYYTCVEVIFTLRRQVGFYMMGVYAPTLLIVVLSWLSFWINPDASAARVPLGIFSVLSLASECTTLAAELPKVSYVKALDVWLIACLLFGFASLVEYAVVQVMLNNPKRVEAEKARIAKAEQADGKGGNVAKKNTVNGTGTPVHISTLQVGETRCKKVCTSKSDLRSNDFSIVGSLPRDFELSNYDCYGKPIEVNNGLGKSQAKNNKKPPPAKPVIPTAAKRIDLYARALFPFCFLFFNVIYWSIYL
MEASUREMENT NOTES: Whole-cell patch-clamp of glycine-induced currents, heteromeric α2β GlyR expressed in CHO cells
Type: cell-based
TEST CONTEXT: +80 mV; glycine 30 μM; representative; read-out: NFA IC50 (representative IC50 curve)
QUANTITY NAME: IC50
Answer with the value and then the unit.

Form: compound = `O=C(O)c1cccnc1Nc1cccc(C(F)(F)F)c1` ; IC50 = 22 µM

* * *

TGT: homomeric α1 GlyR (Homo sapiens)
Construct: expressed in transfected cells; host or cells: CHO cells
MEASUREMENT NOTES: Whole-cell patch-clamp of glycine-induced currents, α1 GlyR expressed in CHO cells
Format: cell-based
TEST CONTEXT: −30 mV; glycine 100 μM; representative; read-out: NFA IC50 (representative IC50 curve)
QUANTITY NAME: pIC50
Scale for pIC50: -log10 of concentration given in mol/L; no unit attached.

Form: molecule = `O=C(O)c1cccnc1Nc1cccc(C(F)(F)F)c1` ; pIC50 = 3.77

* * *

TGT: G254A-α1 GlyR (Homo sapiens, UniProt P23415, G282A)
Construct: expressed in transfected cells; host or cells: CHO cells
MEASUREMENT NOTES: Whole-cell patch-clamp of glycine-induced currents, G254A-α1 GlyR mutant expressed in CHO cells
Assay type: cell-based
TEST CONTEXT: +80 mV; glycine 30 μM; ramp protocol; mean ± SEM; read-out: IC50 of NFA
QUANTITY NAME: pIC50
Scale for pIC50: -log10 of concentration given in mol/L; no unit attached.

Form: compound = O=C(O)c1cccnc1Nc1cccc(C(F)(F)F)c1 [NFA, Niflumic acid] ; pIC50 = 4.19

* * *

TGT: α2β GlyR (Homo sapiens, UniProt P23416+P48167)
Construct: expressed in transfected cells; host or cells: CHO cells
MEASUREMENT NOTES: Whole-cell patch-clamp of glycine-induced currents, heteromeric α2β GlyR expressed in CHO cells
Format: cell-based
TEST CONTEXT: −80 mV; glycine 30 μM; mean ± SEM; read-out: IC50 of NFA
Experimental: The experiments were carried out on cultured Chinese hamster ovary (CHO) cells obtained from the American Type Tissue Culture Collection (ATCC, Molsheim, France) that were maintained in culture conditions as previously described (Mukhtarov et al., [2013]; Maleeva et al., [2015]). One day before transfection, cells were plated on the cover slips (12 mm in diameter) and placed inside 35-mm cell culture dishes with 2 ml of medium. […]
QUANTITY NAME: IC50
Answer with the value and then the unit.

Bench note, α2β GlyR (Homo sapiens, UniProt P23416+P48167): O=C(O)c1cccnc1Nc1cccc(C(F)(F)F)c1 [NFA, Niflumic acid] , IC50 reads 107 µM

* * *

TGT: α2 GlyR (Homo sapiens, UniProt P23416)
Construct: expressed in transfected cells; host or cells: CHO cells
Sequence (P23416 28-452 isoform P23416-2 limits assumed): as the sequence (P23416 28-452 isoform P23416-2 limits assumed) above
MEASUREMENT NOTES: Whole-cell patch-clamp of glycine-induced currents, α2 GlyR expressed in CHO cells
Type: cell-based
TEST CONTEXT: +80 mV; glycine 100 μM; ramp protocol; mean ± SEM; read-out: IC50 of NFA
QUANTITY NAME: pIC50
Scale for pIC50: -log10 of concentration given in mol/L; no unit attached.

Form: compound = O=C(O)c1cccnc1Nc1cccc(C(F)(F)F)c1 [NFA, Niflumic acid] ; pIC50 = 5.05

* * *

TGT: α2 GlyR (Homo sapiens)
Construct: expressed in transfected cells; host or cells: CHO cells
MEASUREMENT NOTES: Whole-cell patch-clamp of glycine-induced currents, α2 GlyR expressed in CHO cells
Type: cell-based
TEST CONTEXT: −30 mV; glycine 100 μM; representative; read-out: NFA IC50 (representative IC50 curve)
QUANTITY NAME: pIC50
Scale for pIC50: -log10 of concentration given in mol/L; no unit attached.

Bench note, α2 GlyR (Homo sapiens): `O=C(O)c1cccnc1Nc1cccc(C(F)(F)F)c1` , pIC50 reads 4.41

* * *

TGT: α2β GlyR (Homo sapiens, UniProt P23416+P48167)
Construct: expressed in transfected cells; host or cells: CHO cells
MEASUREMENT NOTES: Whole-cell patch-clamp of glycine-induced currents, heteromeric α2β GlyR expressed in CHO cells
Format: cell-based
TEST CONTEXT: −30 mV; glycine 30 μM; representative; read-out: NFA IC50 (representative IC50 curve)
QUANTITY NAME: pIC50
Scale for pIC50: -log10 of concentration given in mol/L; no unit attached.

Form: compound = `O=C(O)c1cccnc1Nc1cccc(C(F)(F)F)c1` ; pIC50 = 4.33

* * *

TGT: G254A-α1 GlyR (Homo sapiens, UniProt P23415, G282A)
Construct: expressed in transfected cells; host or cells: CHO cells
Sequence (P23415 29-449 isoform P23415-2 G282A limits assumed): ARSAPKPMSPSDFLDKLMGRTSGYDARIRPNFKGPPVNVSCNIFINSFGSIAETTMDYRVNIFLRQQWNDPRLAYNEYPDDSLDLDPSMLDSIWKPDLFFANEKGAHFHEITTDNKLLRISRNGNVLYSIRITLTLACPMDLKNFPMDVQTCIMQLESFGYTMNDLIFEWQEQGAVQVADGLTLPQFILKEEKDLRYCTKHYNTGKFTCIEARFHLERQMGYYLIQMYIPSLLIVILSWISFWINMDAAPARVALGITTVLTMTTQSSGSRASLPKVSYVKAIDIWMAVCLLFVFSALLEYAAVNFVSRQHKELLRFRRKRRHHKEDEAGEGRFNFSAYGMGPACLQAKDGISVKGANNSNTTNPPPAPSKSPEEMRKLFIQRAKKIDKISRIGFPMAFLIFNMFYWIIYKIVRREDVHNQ
MEASUREMENT NOTES: Whole-cell patch-clamp of glycine-induced currents, G254A-α1 GlyR mutant expressed in CHO cells
Assay type: cell-based
TEST CONTEXT: +30 mV; glycine 30 μM; representative; read-out: NFA IC50 (representative IC50 curve)
QUANTITY NAME: IC50 (µM)
# output: bare number, implied unit µM

Bench note, G254A-α1 GlyR (Homo sapiens, UniProt P23415, G282A): `O=C(O)c1cccnc1Nc1cccc(C(F)(F)F)c1` , IC50 reads 92

* * *

TGT: homomeric α1 GlyR (Homo sapiens, UniProt P23415)
Construct: expressed in transfected cells; host or cells: CHO cells
Sequence (P23415 29-449 isoform P23415-2 limits assumed): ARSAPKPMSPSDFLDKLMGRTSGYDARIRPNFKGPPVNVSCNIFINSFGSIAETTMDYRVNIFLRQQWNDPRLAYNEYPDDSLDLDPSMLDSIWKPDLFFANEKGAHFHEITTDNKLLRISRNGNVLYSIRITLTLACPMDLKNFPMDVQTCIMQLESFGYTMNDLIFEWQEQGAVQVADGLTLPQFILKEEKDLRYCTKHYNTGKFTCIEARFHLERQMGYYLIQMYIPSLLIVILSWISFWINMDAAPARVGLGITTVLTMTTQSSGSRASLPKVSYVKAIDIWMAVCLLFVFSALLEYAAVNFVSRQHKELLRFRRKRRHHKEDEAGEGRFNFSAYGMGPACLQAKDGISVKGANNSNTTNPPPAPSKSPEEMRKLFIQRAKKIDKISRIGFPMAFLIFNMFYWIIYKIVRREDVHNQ
MEASUREMENT NOTES: Whole-cell patch-clamp of glycine-induced currents, α1 GlyR expressed in CHO cells
Type: cell-based
TEST CONTEXT: −30 mV; glycine 30 μM; representative; read-out: NFA IC50 (representative IC50 curve)
QUANTITY NAME: pIC50
Scale for pIC50: -log10 of concentration given in mol/L; no unit attached.

Form: compound = O=C(O)c1cccnc1Nc1cccc(C(F)(F)F)c1 [NFA, Niflumic acid] ; pIC50 = 3.59

* * *

TGT: homomeric α1 GlyR (Homo sapiens, UniProt P23415)
Construct: expressed in transfected cells; host or cells: CHO cells
MEASUREMENT NOTES: Whole-cell patch-clamp of glycine-induced currents, α1 GlyR expressed in CHO cells
Type: cell-based
TEST CONTEXT: −80 mV; glycine 30 μM; representative; read-out: NFA IC50 (representative IC50 curve)
QUANTITY NAME: IC50
Answer with the value and then the unit.

Form: compound = `O=C(O)c1cccnc1Nc1cccc(C(F)(F)F)c1` ; IC50 = 272 µM

* * *

TGT: G254A-α1 GlyR (Homo sapiens, UniProt P23415, G282A)
Construct: expressed in transfected cells; host or cells: CHO cells
MEASUREMENT NOTES: Whole-cell patch-clamp of glycine-induced currents, G254A-α1 GlyR mutant expressed in CHO cells
Assay type: cell-based
TEST CONTEXT: +80 mV; glycine 30 μM; representative; read-out: NFA IC50 (representative IC50 curve)
QUANTITY NAME: IC50 (µM)
# output: bare number, implied unit µM

Form: compound = `O=C(O)c1cccnc1Nc1cccc(C(F)(F)F)c1` ; IC50 = 68
